- targetOrSystem: SMARCA2 (Homo sapiens, UniProt P51531)
- Sequence (P51531 whole entry): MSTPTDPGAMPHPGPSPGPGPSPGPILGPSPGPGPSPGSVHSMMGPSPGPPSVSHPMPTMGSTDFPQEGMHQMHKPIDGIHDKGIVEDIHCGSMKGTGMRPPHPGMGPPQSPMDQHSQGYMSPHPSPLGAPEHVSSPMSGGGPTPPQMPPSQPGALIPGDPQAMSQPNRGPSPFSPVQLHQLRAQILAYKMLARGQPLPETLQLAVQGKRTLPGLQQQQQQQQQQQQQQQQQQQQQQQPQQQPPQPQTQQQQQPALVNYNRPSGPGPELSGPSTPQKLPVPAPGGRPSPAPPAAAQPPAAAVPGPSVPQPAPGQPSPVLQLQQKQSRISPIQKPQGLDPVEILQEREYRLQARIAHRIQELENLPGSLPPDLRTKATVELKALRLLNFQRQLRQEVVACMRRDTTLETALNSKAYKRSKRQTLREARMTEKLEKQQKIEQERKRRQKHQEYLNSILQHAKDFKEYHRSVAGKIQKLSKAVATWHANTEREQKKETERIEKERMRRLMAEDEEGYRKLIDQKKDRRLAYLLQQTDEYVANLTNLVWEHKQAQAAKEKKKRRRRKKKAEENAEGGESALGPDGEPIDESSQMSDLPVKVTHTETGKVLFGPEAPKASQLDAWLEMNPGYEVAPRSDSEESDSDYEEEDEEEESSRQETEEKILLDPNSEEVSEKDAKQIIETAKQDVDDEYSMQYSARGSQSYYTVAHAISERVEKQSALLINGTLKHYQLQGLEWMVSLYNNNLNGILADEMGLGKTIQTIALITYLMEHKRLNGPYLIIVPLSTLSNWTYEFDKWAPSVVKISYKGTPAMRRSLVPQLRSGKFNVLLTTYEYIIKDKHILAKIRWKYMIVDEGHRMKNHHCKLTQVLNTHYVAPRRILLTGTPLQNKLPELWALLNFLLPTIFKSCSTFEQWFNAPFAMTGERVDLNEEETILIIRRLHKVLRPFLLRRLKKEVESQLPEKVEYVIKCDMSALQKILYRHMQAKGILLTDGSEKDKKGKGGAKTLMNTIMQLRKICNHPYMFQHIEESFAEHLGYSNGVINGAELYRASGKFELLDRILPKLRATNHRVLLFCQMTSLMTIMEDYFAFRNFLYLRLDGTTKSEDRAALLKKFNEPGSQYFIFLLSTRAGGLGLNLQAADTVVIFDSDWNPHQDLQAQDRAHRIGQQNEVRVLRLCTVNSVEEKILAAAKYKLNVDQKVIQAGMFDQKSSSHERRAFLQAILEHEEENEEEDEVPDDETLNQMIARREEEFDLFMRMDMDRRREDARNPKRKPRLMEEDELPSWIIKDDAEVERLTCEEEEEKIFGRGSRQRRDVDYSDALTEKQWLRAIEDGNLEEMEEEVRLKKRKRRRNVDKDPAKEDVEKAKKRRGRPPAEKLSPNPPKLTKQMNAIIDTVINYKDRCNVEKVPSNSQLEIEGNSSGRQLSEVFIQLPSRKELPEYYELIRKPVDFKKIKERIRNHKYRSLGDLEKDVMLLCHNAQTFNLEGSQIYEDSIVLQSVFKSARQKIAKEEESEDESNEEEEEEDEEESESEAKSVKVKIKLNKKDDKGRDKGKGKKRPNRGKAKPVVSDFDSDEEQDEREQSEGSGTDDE
- methodNotes: MSD SMARCA2 degradation in NCI-H1299 cell line (24 h)
- Type: cell-based
- Design: HC: NCI-H1299 cells treated with DMSO; host or cells: NCI-H1299
- conditionContext: NCI-H1299 cells, read-out: SMARCA2 MSD H1299 degradation 24 h: External Abs-DC50
DC50 values for the compounds below.

Record excerpt, results attached:
compound	experimentalValue
CN(CCOCCOCCCc1ccc2c(c1)oc(=O)n2C1CCC(=O)NC1=O)Cc1ccc(N2CCN(c3cc(-c4ccccc4O)nnc3N)CC2)cc1 (centres unmarked)	100 to 500 nM
Cn1c(=O)n(C2CCC(=O)NC2=O)c2ccc(CCCCCCCCCNC(=O)c3cccc(C#Cc4cc(NC(=O)Nc5ccnc(Cl)c5)ccn4)c3)cc21 (centres unmarked)	100 to 500 nM
O=C1CCC(n2c(=O)n(CCCCCCCCc3cn(Cc4cccc(N5C[C@H]6C[C@@H]5CN6/C=C/C(=O)c5ccccc5O)n4)nn3)c3ccccc32)C(=O)N1 (some centres unmarked)	> 1000 nM

Can you look up the measured DC50 of Cn1c(=O)n(C2CCC(=O)NC2=O)c2cccc(CNCCCc3cn(Cc4cccc(N5C[C@H]6C[C@@H]5CN6/C=C/C(=O)c5ccccc5O)n4)nn3)c21 (some centres unmarked) for me?
> 1000 nM

Can you look up the measured DC50 of Cn1c(=O)n(C2CCC(=O)NC2=O)c2ccc(CCCOCCOCCOCCNC(=O)CCCOc3cccc(N4C[C@H]5C[C@@H]4CN5/C=C/C(=O)c4ccccc4O)n3)cc21 (some centres unmarked) for me?
> 1000 nM

Can you look up the measured DC50 of Cc1ncsc1-c1ccc(CNC(=O)[C@@H]2C[C@@H](O)CN2C(=O)[C@@H](NC(=O)COCCOCCOCCOCCNC(=O)c2ccc(C(C)n3cc(-c4cc(-c5ccccc5O)nnc4N)cn3)cc2)C(C)(C)C)cc1 (some centres unmarked) for me?
> 1000 nM

Can you look up the measured DC50 of Cn1c(=O)n(C2CCC(=O)NC2=O)c2cccc(CCCCCCCCc3cn(Cc4cccc(N5C[C@H]6C[C@@H]5CN6/C=C/C(=O)c5ccccc5O)n4)nn3)c21 (some centres unmarked) for me?
> 1000 nM

Can you look up the measured DC50 of O=C(CCCCCCCCOc1ccc(N2C[C@H]3C[C@@H]2CN3/C=C/C(=O)c2ccccc2O)nc1)NCCOCCOCCNc1cccc2c1C(=O)N(C1CCC(=O)NC1=O)C2=O (some centres unmarked) for me?
> 1000 nM

Can you look up the measured DC50 of `Cc1ncsc1-c1ccc(CNC(=O)[C@@H]2C[C@@H](O)CN2C(=O)[C@@H](NC(=O)CN(C)Cc2ccc(N3CCN(c4cc(-c5ccccc5O)nnc4N)CC3)cc2)C(C)(C)C)cc1` for me?
501 to 1000 nM

Can you look up the measured DC50 of Cn1c(=O)n(C2CCC(=O)NC2=O)c2ccc(C#CCOCCOCCN3CCN(Cc4ccc(-c5cc(-c6ccccc6O)nnc5N)cc4)CC3)cc21 (centres unmarked) for me?
> 1000 nM

Can you look up the measured DC50 of Cn1c(=O)n(C2CCC(=O)NC2=O)c2ccc(CCCOCCOCCNC(=O)CCCCCCCCOc3ccc(N4C[C@H]5C[C@@H]4CN5/C=C/C(=O)c4ccccc4O)nc3)cc21 (some centres unmarked) for me?
> 1000 nM

Values from patent US12624044B2
